The measurements presented in this section are drawn from patent US20240415918A1.

Study system: CCK-B receptors (CHO-CCK) (Homo sapiens, UniProt P32239)
Construct: expressed in transfected cells; host or cells: CHO (CHO-CCK model cells)
Sequence (P32239 1-447): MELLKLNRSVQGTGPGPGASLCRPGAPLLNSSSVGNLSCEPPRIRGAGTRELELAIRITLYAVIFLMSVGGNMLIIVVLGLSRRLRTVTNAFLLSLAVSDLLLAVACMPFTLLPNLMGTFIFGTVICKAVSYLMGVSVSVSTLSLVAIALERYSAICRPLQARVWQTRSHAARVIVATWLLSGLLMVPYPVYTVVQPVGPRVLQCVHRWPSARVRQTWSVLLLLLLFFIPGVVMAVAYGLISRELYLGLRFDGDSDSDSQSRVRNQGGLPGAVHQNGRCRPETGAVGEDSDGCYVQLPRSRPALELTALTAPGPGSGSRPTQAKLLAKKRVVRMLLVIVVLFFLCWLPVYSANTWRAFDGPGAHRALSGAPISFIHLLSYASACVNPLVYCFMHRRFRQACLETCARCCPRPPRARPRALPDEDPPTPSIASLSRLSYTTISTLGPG
Assay details: Calcium flux (Fluo-8) antagonist test on CHO-CCK model cells in presence of CCK8
Format: cell-based
Test settings: compound together with 10 nM CCK8
Where a SMILES comes first, the peptide text is derived from it. [ ]: non-standard residue; d: D form. Phe(3-Br) = N[C@@H](Cc1cccc(Br)c1)C(=O)O; Nle = CCCC[C@H](N)C(=O)O
Can you tell me EC50 for the items I'm about to list?
Numbers only, in µM.

>  <Compound>
C[S+]([O-])CC[C@H](NC(=O)[C@H](N)Cc1c[nH]c2ccccc12)C(=O)N[C@@H](CC(=O)O)C(=O)N[C@@H](Cc1ccccc1F)C(N)=O (stereo partly drawn)

>  <EC50, µM>
8.41

$$$$
>  <Compound>
CSCC[C@H](NC(=O)[C@H](N)Cc1c[nH]c2ccccc12)C(=O)N[C@@H](CC(=O)O)C(=O)N[C@@H](Cc1cccc(F)c1)C(N)=O

>  <EC50, µM>
1.34

$$$$
>  <Compound>
CS(=O)(=O)CC[C@H](NC(=O)[C@H](N)Cc1c[nH]c2ccccc12)C(=O)N[C@@H](CC(=O)O)C(=O)N[C@@H](Cc1cc(F)cc(F)c1)C(N)=O

>  <EC50, µM>
8.82

$$$$
>  <Compound>
COC(=O)C[C@H](NC(=O)[C@H](CCSC)NC(=O)[C@H](N)Cc1c[nH]c2ccccc12)C(=O)N[C@@H](Cc1ccc(F)cc1)C(N)=O

>  <EC50, µM>
9.98

$$$$
>  <Compound>
CCCC[C@H](NC(=O)[C@@H](Cc1c[nH]c2ccccc12)NC(C)=O)C(=O)N[C@@H](CC(=O)O)C(=O)N[C@@H](Cc1cccc(Br)c1)C(N)=O [HT-178, Ac-D-Trp-Nle-Asp-Phe(3-Br)-NH2] (Ac-[dW][Nle]D[Phe(3-Br)]-NH2)

>  <EC50, µM>
0.528

$$$$

// for each compound in input: emit EC50
1. CSCC[C@H](NC(=O)[C@@H](Cc1ccccc1)NC(C)=O)C(=O)N[C@@H](CC(=O)O)C(=O)N[C@@H](Cc1cccc(Br)c1)C(N)=O [HT-180, Ac-D-Phe-Met-Asp-Phe(3-Br)-NH2] (Ac-[dF]MD[Phe(3-Br)]-NH2)
2. CSCC[C@H](NC(=O)[C@H](N)Cc1c[nH]c2ccccc12)C(=O)N[C@@H](CC(=O)O)C(=O)N[C@@H](Cc1ccc(C#N)cc1)C(N)=O
3. CSCC[C@H](NC(=O)[C@@H](Cc1c[nH]c2ccccc12)NC(C)=O)C(=O)N[C@@H](CC(C)C)C(=O)N[C@@H](Cc1cccc(Br)c1)C(N)=O [HT-190, Ac-D-Trp-Met-Leu-Phe(3-Br)-NH2] (Ac-[dW]ML[Phe(3-Br)]-NH2)
4. CSCC[C@H](NC(=O)[C@@H](Cc1c[nH]c2ccccc12)NC(C)=O)C(=O)N[C@@H](CCC(=O)O)C(=O)N[C@@H](Cc1cccc(Br)c1)C(N)=O [HT-186, Ac-D-Trp-Met-Glu-Phe(3-Br)-NH2] (Ac-[dW]ME[Phe(3-Br)]-NH2)

3.56
2.66
6.16
7.71
